Measured Growth Rate accompanies every entry in the list below.
tested on: U2OS; test: Incucyte cell viability with U2OS; format: toxicity, cell-based; settings: human, 24 h, 10 µM, compound concentration 10 uM, replicate number 2, timepoint 24 hours; also: filed as whole numbers so only -1 and 0 and 1 occur
The answer should be a number; do not append a unit.

{"MOLECULE": "C[C@@]1(Cc2ccc(C#N)cc2)C(=O)N(c2cc(Cl)cc(Cl)c2)c2ncc(C(=O)NC3(c4nc(C5CCC5)no4)CC3)n21", "VALUE KIND": "Growth Rate", "TEST VALUE": 0}
{"MOLECULE": "Cc1nc(C(=O)N2CCC[C@H]2Cc2nnc(-c3ccccc3)o2)c(-c2ccccc2F)s1", "VALUE KIND": "Growth Rate", "TEST VALUE": 1}
{"MOLECULE": "Cn1c(-c2csc(C3CCN(CC4=NC5N=CC=CC5N4)CC3)n2)nc2ccccc21 (configuration not stated)", "VALUE KIND": "Growth Rate", "TEST VALUE": 0}
{"MOLECULE": "CN(C)c1ncnc(-c2ccc3nc(Nc4cc(CN5CCN(C(=O)CC(F)(F)F)CC5)ccn4)[nH]c3c2)c1Cl", "VALUE KIND": "Growth Rate", "TEST VALUE": 1}
{"MOLECULE": "COc1cccc(OC)c1-c1cc(C(=O)NC2(C(=O)O)C3CC4CC(C3)CC2C4)nn1-c1ccc(C(=O)N(C)CCCN(C)C)cc1C(C)C (configuration not stated)", "VALUE KIND": "Growth Rate", "TEST VALUE": 1}

Q. Please supply the value of reported Growth Rate for the item CCc1cc(C(C)=O)c(O)cc1OCCCCCC(C)(C)c1nn[nH]n1
A. 0

Q. Please supply the value of reported Growth Rate for the item CCn1cc(-c2cccc(C(F)(F)F)c2)c2sc(C(=N)NC3CCS(=O)(=O)CC3)cc2c1=O
A. 1

Q. Please supply the value of reported Growth Rate for the item C[C@H](Cc1cc2c(c(C(N)=O)c1)N(CCCO)CC2)NCCOc1ccccc1OCC(F)(F)F
A. 0

Q. Please supply the value of reported Growth Rate for the item CC(C)(O)CNc1ncc(-c2ccnc(Nc3ccnc(Cl)c3)n2)c(CC2CC2)n1
A. 1

Q. Please supply the value of reported Growth Rate for the item CSc1ccc(C(=O)N[C@@H]2CCCC[C@@H]2NC(=O)CNC(=O)c2cc(C(F)(F)F)ccc2NC(=O)NC(C)C)cc1
A. 1

Q. Please supply the value of reported Growth Rate for the item CCOCCn1cc(C(=O)Nc2ccc(-n3nc(-c4cccnc4)cc3C(F)(F)F)cn2)ccc1=O
A. 1

Q. Please supply the value of reported Growth Rate for the item N#CC(Cc1ccc(O)cc1)c1ccc(O)cc1 (configuration not stated)
A. 0

Q. Please supply the value of reported Growth Rate for the item COc1ccc2cc(OCC3(C(=O)O)CN(C(=O)c4ccc(F)cc4)C3)ccc2c1
A. 0

Q. Please supply the value of reported Growth Rate for the item Cc1nc(C2CCN(C(=O)c3ccc(OC(F)(F)F)cc3N)CC2)c2ncc(N3CCN(C)CC3)cc2n1
A. 1

Q. Please supply the value of reported Growth Rate for the item COc1cccc([C@@H](C)NCCCc2ccccc2Cl)c1.Cl [TECALCET HYDROCHLORIDE]
A. 0

Q. Please supply the value of reported Growth Rate for the item CN(C)S(=O)(=O)c1ccc(NC(=S)N2CCC(C(O)(c3ccccc3)c3ccccc3)CC2)cc1
A. 1

Q. Please supply the value of reported Growth Rate for the item O=C(NCc1ccccc1)c1ccc(S(=O)(=O)NCc2ccccc2)cc1
A. 0

* * *

tested on: Fibroblast; assay: Multiplex assay against human fibroblast; type: toxicity, cell-based; details: 12 h, 10 µM, compound concentration 10 uM, replicate 1
VALUE KIND: Population Mitotic Cells (%)
Write the number in % without appending the unit.

Worked cases, answers included:
{"MOLECULE": "c1cn2cc(-c3ccc4cn[nH]c4c3)nc(Nc3ccc(N4CCOCC4)cc3)c2n1", "TARGET": "Fibroblast", "TEST VALUE": 48}
{"MOLECULE": "Cc1cc(C)cc(-c2cnc3cc(Cl)c(-c4cccc(O)c4)cc3c2OCCCN)c1", "TARGET": "Fibroblast", "TEST VALUE": 66}
{"MOLECULE": "Cc1c(-c2ccc(O)cc2)n(Cc2ccc(OCCN3CCCCCC3)cc2)c2ccc(O)cc12", "TARGET": "Fibroblast", "TEST VALUE": 27}
{"MOLECULE": "CN1CCCC(n2nc(Cc3ccc(Cl)cc3)c3ccccc3c2=O)CC1.Cl (stereo unspecified) [AZELASTINE HYDROCHLORIDE]", "TARGET": "Fibroblast", "TEST VALUE": 25}

Q. Please supply the value of reported Population Mitotic Cells (%) for the item OC1(c2ccc(Cl)cc2)CCN(Cc2c[nH]c3ccccc23)CC1
A. 36

Q. Please supply the value of reported Population Mitotic Cells (%) for the item Cc1nc(-c2cn3c(n2)-c2ccc(-c4cnn(C(C)(C)C(N)=O)c4)cc2OCC3)n(C(C)C)n1
A. 28

Q. Please supply the value of reported Population Mitotic Cells (%) for the item Cc1[nH]c(/C=C2\C(=O)Nc3ccc(S(=O)(=O)N(C)c4cccc(Cl)c4)cc32)c(C)c1C(=O)N1CCN(C)CC1
A. 38

* * *

tested on: Fibroblast; assay: Multiplex assay against human fibroblast; assay type: toxicity, cell-based; conditions: 48 h, 1 µM, compound concentration 1 uM, replicate 2
VALUE KIND: Population Hoechst High Intensity Objects (%)
Write the number in % without appending the unit.

Worked cases, answers included:
{"COMPOUND": "C=CC(=O)Nc1cccc(C(=O)Nc2ccc(Nc3cc(-c4[nH]c(SC)nc4C)ccn3)cc2)c1", "TEST VALUE": 17}
{"COMPOUND": "Cn1cc(-c2[nH]c3cc(NC(=O)[C@H](N)C4CCCCC4)cc4c3c2C=NNC4=O)cn1", "TEST VALUE": 15}
{"COMPOUND": "CN(C)CC#Cc1ccc(OCCCc2sc(N3CCc4cccc(C(=O)Nc5nc6ccccc6s5)c4C3)nc2C(=O)O)c(F)c1 [A-1155463]", "TEST VALUE": 11}

Q. Provide Population Hoechst High Intensity Objects (%), tested on Fibroblast, for Cc1[nH]c(/C=C2\C(=O)Nc3ccc(S(=O)(=O)N(C)c4cccc(Cl)c4)cc32)c(C)c1C(=O)N1CCN(C)CC1 .
A. 17

Q. Provide Population Hoechst High Intensity Objects (%), tested on Fibroblast, for O=C1NCN(c2ccccc2)C12CCN(CCCOc1ccc(F)cc1)CC2 [SPIRAMIDE] .
A. 5

* * *

Measured Population Fragmented Nuclei (%) accompanies every entry in the list below.
tested on: Fibroblast; assay: Multiplex assay against human fibroblast; type: toxicity, cell-based; settings: 48 h, 1 µM, compound concentration 1 uM, replicate 2
Write the number in % without appending the unit.

Worked cases, answers included:
{"COMPOUND": "c1cn2cc(-c3ccc4cn[nH]c4c3)nc(Nc3ccc(N4CCOCC4)cc3)c2n1 [ENTOSPLETINIB]", "TARGET": "Fibroblast", "VALUE KIND": "Population Fragmented Nuclei (%)", "TEST VALUE": 28}
{"COMPOUND": "Cc1[nH]c(/C=C2\\C(=O)Nc3ccc(S(=O)(=O)N(C)c4cccc(Cl)c4)cc32)c(C)c1C(=O)N1CCN(C)CC1", "TARGET": "Fibroblast", "VALUE KIND": "Population Fragmented Nuclei (%)", "TEST VALUE": 16}
{"COMPOUND": "COc1ncc(-c2ccc3nccc(-c4ccnnc4)c3c2)cc1NS(=O)(=O)c1ccc(F)cc1F [OMIPALISIB]", "TARGET": "Fibroblast", "VALUE KIND": "Population Fragmented Nuclei (%)", "TEST VALUE": 47}

Now, please, on to the next compound.
Q. Please supply the value of reported Population Fragmented Nuclei (%) for the item Cc1c(-c2ccc(O)cc2)n(Cc2ccc(OCCN3CCCCCC3)cc2)c2ccc(O)cc12 [BAZEDOXIFENE]
A. 27

* * *

system: U2OS; assay: Multiplex assay against U2OS; type: toxicity, cell-based; details: human, 48 h, 10 µM, compound concentration 10 uM, replicate 1
Classify: rule met when Population Mitotic Cells (%) is strictly less than 20%; rule not met when Population Mitotic Cells (%) is not.

See these solved cases before continuing.
{"COMPOUND": "COc1cc2nccc(Oc3ccc(NC(=O)Nc4cc(C)on4)c(Cl)c3)c2cc1OC.O", "GROUP": "rule met"}
{"COMPOUND": "COc1ncc(-c2ccc3nccc(-c4ccnnc4)c3c2)cc1NS(=O)(=O)c1ccc(F)cc1F", "GROUP": "rule met"}
{"COMPOUND": "NC(=O)Nc1cc(-c2cccc(F)c2)sc1C(=O)N[C@H]1CCCNC1", "GROUP": "rule met"}
{"COMPOUND": "Cc1csc2c(N[C@@H](C)CN3CCN(S(=O)(=O)c4ccc(Cl)c(Cl)c4)CC3)ncnc12", "GROUP": "rule met"}
{"COMPOUND": "CNc1nc(NCc2ccc(NS(C)(=O)=O)cc2Cl)cc(-c2ccccn2)n1", "GROUP": "rule not met"}
{"COMPOUND": "Cl.N#Cc1ccc2[nH]cc(CCCCN3CCN(c4ccc5oc(C(N)=O)cc5c4)CC3)c2c1 [VILAZODONE HYDROCHLORIDE]", "GROUP": "rule met"}
{"COMPOUND": "c1cn2cc(-c3ccc4cn[nH]c4c3)nc(Nc3ccc(N4CCOCC4)cc3)c2n1", "GROUP": "rule not met"}
{"COMPOUND": "CN1CCN(CCOc2cc(OC3CCOCC3)c3c(Nc4c(Cl)ccc5c4OCO5)ncnc3c2)CC1", "GROUP": "rule not met"}

Q. For this compound, is Population Mitotic Cells (%) lower than 20%? Cc1c(-c2ccc(O)cc2)n(Cc2ccc(OCCN3CCCCCC3)cc2)c2ccc(O)cc12
A. rule met

Q. For this compound, is Population Mitotic Cells (%) lower than 20%? CN1CCCC(n2nc(Cc3ccc(Cl)cc3)c3ccccc3c2=O)CC1.Cl (configuration not stated) [AZELASTINE HYDROCHLORIDE]
A. rule met

Q. For this compound, is Population Mitotic Cells (%) lower than 20%? C[C@@]1(C(=O)Nc2ccc(F)nc2)CCCN1c1nc(Nc2cc(C3CC3)n[nH]2)c2cccn2n1
A. rule not met

Q. For this compound, is Population Mitotic Cells (%) lower than 20%? O=C1NCN(c2ccccc2)C12CCN(CCCOc1ccc(F)cc1)CC2 [SPIRAMIDE]
A. rule not met
